tested-on: T1, CD32b (FcgRIIb) (Homo sapiens, UniProt P31994)
T1 sequence (P31994 43-310): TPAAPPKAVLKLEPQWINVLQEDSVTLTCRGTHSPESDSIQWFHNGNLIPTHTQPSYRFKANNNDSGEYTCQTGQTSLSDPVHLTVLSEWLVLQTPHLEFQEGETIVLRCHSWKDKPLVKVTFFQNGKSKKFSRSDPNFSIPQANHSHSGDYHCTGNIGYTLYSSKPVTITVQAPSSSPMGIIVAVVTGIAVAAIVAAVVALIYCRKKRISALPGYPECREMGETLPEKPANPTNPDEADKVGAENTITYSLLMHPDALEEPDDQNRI
method: SPR binding to FcgR-his: CD32b
test-parameters: 1 μM antibody, anti-his Fab captured FcgR-his
property: % Rmax, binding to hCD32b (%)
Return type: number; implicit unit %.

Would you please look over these solved cases?
| molecule | % Rmax, binding to hCD32b / % |
| --- | --- |
| mAb5-IgG2.5 (protein, left off: another chain or arm of the molecule) constant: ASTKGPSVFPLAPSSRSTSESTAALGCLVKDYFPEPVTVSWNSGALTSGVHTFPAVLQSSGLYSLSSVVTVPSSNFGTQTYTCNVDHKPSNTKVDKTVERKCCVECPPCPAPPVAGPSVFLFPPKPKDTLMISRTPEVTCVVVDVSHEDPEVQFNWYVDGVEVHNAKTKPREEQFNSTFRVVSVLTVVHQDWLNGKEYKCKVSNKGLPAPIEKTISKTKGQPREPQVYTLPPSREEMTKNQVSLTCLVKGFYPSDIAVEWESNGQPENNYKTTPPMLDSDGSFFLYSKLTVDKSRWQQGNVFSCSVMHEALHNHYTQKSLSLSPGK | 5 |
| mAb7-IgG2.3G1-AY-V27 (protein, left off: another chain or arm of the molecule) constant: ASTKGPSVFPLAPCSRSTSESTAALGCLVKDYFPEPVTVSWNSGALTSGVHTFPAVLQSSGLYSLSSVVTVPSSNFGTQTYTCNVDHKPSNTKVDKTVERKSCVECPPCPAPELLGGPSVFLFPPKPKDTLMISRTPEVTCVVVDVEHEDPEVKFNWYVDGVEVHNAKTKPREEQYNSTYRVVSVLTVLHQDWLNGKEYKCKVSNKALPAPIEKTISKAKGQPREPQVYTLPPSREEMTKNQVSLTCLVKGFYPSDIAVEWESNGQPENNYKTTPPVLDSDGSFFLYSKLTVDKSRWQQGNVFSCSVMHEALHNHYTQKSLSLSPGK | 76 |
| mAb6-IgG2.5 (protein, left off: another chain or arm of the molecule) constant: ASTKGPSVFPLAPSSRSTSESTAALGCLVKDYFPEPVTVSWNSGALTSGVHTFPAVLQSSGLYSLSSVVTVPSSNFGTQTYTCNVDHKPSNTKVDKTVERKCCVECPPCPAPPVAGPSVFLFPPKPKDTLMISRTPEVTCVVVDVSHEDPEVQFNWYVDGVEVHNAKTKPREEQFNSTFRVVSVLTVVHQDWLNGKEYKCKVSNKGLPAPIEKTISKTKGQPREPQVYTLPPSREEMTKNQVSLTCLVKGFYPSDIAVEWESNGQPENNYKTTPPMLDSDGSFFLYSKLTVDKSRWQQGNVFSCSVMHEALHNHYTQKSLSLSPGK | 4 |

Incoming: Consider the molecule mAb4-IgG2.5 (protein, left off: another chain or arm of the molecule) constant: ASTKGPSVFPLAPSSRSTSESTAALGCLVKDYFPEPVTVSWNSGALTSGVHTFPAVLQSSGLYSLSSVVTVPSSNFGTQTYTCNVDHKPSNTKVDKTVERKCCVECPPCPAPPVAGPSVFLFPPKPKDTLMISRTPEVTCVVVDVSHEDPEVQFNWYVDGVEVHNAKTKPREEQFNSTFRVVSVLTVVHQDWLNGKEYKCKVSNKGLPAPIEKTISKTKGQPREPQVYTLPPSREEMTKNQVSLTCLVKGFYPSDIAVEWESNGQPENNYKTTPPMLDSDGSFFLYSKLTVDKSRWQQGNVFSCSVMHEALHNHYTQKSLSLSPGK and give its recorded % Rmax, binding to hCD32b.
Outgoing: 1

Incoming: Consider the molecule mAb13-IgG2.5 (protein, left off: another chain or arm of the molecule) constant: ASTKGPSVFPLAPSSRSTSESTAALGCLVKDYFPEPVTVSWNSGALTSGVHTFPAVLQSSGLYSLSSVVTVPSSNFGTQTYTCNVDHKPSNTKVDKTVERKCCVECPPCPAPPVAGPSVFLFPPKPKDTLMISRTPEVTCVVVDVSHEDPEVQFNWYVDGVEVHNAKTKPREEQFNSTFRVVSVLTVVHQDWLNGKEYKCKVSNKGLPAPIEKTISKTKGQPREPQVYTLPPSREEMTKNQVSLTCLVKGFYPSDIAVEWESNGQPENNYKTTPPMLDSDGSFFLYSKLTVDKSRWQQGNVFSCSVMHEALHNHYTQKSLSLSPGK and give its recorded % Rmax, binding to hCD32b.
Outgoing: −2
